meta.source: paper PMC12376758

- TARGET OR TEST SYSTEM: CB1R (Mus musculus, UniProt P47746)
- Construct: from tissue
- Sequence (P47746 whole entry): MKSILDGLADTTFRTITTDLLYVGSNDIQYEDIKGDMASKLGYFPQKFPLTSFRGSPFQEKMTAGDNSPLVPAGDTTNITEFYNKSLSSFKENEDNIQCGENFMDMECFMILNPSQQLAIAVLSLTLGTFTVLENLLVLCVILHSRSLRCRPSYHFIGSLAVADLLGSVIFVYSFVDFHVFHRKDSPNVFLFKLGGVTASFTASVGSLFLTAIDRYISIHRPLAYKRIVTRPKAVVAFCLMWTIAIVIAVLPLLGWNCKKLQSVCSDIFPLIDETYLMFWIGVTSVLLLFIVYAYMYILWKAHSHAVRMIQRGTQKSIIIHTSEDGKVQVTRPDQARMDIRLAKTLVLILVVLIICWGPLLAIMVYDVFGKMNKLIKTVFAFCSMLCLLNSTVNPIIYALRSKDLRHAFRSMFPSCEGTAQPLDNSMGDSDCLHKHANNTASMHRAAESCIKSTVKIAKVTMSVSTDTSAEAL
- METHOD NOTES: biochemical
- Format: binding
- REPORTED CONDITIONS: read-out: IC50, second value (low-affinity site); CP55940 vs [3H]SR141716A 2 nmol/L; hippocampal membranes of R6/1 WIN (1 mg/kg) mice
METRIC NAME: IC50 (nM)
Use nM as the unit, but write only the number.

q: // IC50 lookup, key: CCCCCCC(C)(C)c1ccc([C@@H]2C[C@H](O)CC[C@H]2CCCO)c(O)c1
a: 382

====

- TARGET OR TEST SYSTEM: CB1R (Mus musculus, UniProt P47746)
- Construct: from tissue
- METHOD NOTES: biochemical
- Assay type: binding
- REPORTED CONDITIONS: IC50, first value (high-affinity site), CP55940 vs [3H]SR141716A 2 nmol/L; hippocampal membranes of WT veh mice
METRIC NAME: IC50 (nM)
Answer with a number only, understood to be in nM.

q: For the compound CCCCCCC(C)(C)c1ccc([C@@H]2C[C@H](O)CC[C@H]2CCCO)c(O)c1 , what IC50 is on record?
a: 23.2

====

- TARGET OR TEST SYSTEM: CB1R (Mus musculus)
- Construct: from tissue
- METHOD NOTES: biochemical
- Format: binding
- REPORTED CONDITIONS: IC50, first value (high-affinity site), CP55940 vs [3H]SR141716A 2 nmol/L; hippocampal membranes of R6/1 WIN (1 mg/kg) mice
METRIC NAME: IC50 (nM)
Unit nM implied. Number only.

q: Which value of IC50 has been reported for CCCCCCC(C)(C)c1ccc([C@@H]2C[C@H](O)CC[C@H]2CCCO)c(O)c1 in the records?
a: 10.9

====

- TARGET OR TEST SYSTEM: CB1R (Mus musculus)
- Construct: from tissue
- METHOD NOTES: biochemical
- Type: binding
- REPORTED CONDITIONS: read-out: IC50, second value (low-affinity site); CP55940 vs [3H]SR141716A 2 nmol/L; hippocampal membranes of WT veh mice
METRIC NAME: IC50 (µM)
Your answer should be a plain number; it is taken to be in µM.

q: Item CCCCCCC(C)(C)c1ccc([C@@H]2C[C@H](O)CC[C@H]2CCCO)c(O)c1 has what recorded IC50?
a: 1.14

====

- TARGET OR TEST SYSTEM: CB1R (Mus musculus)
- Construct: from tissue
- METHOD NOTES: biochemical
- Type: binding
- REPORTED CONDITIONS: IC50, first value (high-affinity site), CP55940 vs [3H]SR141716A 2 nmol/L; hippocampal membranes of WT WIN (1 mg/kg) mice
METRIC NAME: pIC50
pIC50 is defined as minus the log10 of a concentration measured in mol/L.

q: Can you look up pIC50 on CB1R (Mus musculus) for CCCCCCC(C)(C)c1ccc([C@@H]2C[C@H](O)CC[C@H]2CCCO)c(O)c1 ?
a: 7.74

====

- TARGET OR TEST SYSTEM: CB1R (Mus musculus)
- Construct: from tissue
- METHOD NOTES: biochemical
- Format: binding
- REPORTED CONDITIONS: read-out: IC50, second value (low-affinity site); CP55940 vs [3H]SR141716A 2 nmol/L; hippocampal membranes of WT WIN (1 mg/kg) mice
METRIC NAME: IC50 (nM)
Write the number in nM without appending the unit.

q: Reported IC50 for CCCCCCC(C)(C)c1ccc([C@@H]2C[C@H](O)CC[C@H]2CCCO)c(O)c1 [CP55940] : what is it?
a: 850
